- Measurement Protocol: Clearance in human liver microsomes at 1 uM incubated for 10 mins by LC-MS/MS method
- Type: ADME, Microsome
Measurement Kind: CLhep predicted at 1 µM

> print(dat)
                                   molecule  observed.result
1  COc1cccc(NC(=O)[C@H]2CN(C)C[C@@H]2c2ccc(/C=C/C(=O)Nc3ccccc3N)cc2)c1 (racemic)     14 mL/min/kg
2  Nc1ccccc1NC(=O)/C=C/c1ccc([C@H]2CN(CCF)C[C@@H]2C(=O)Nc2ccc(Cl)cc2)cc1 (racemic)     17 mL/min/kg
3  Nc1ccccc1NC(=O)/C=C/c1ccc([C@H]2CN(c3ncccn3)C[C@@H]2C(=O)Nc2ccc(Cl)cc2)cc1 (racemic)     11 mL/min/kg
4  CN1C[C@H](C(=O)N2CCCCC2)[C@@H](c2ccc(/C=C/C(=O)Nc3ccccc3N)cc2)C1 (racemic)      9 mL/min/kg
5  Nc1ccccc1NC(=O)/C=C/c1ccc([C@H]2CN(CCO)C[C@@H]2C(=O)Nc2ccc(Cl)cc2)cc1 (racemic)     11 mL/min/kg
6  CN1C[C@H](C(=O)Nc2ccc(F)c(Br)c2)[C@@H](c2ccc(/C=C/C(=O)Nc3ccccc3N)cc2)C1 (racemic)     15 mL/min/kg
7  CN1C[C@H](C(=O)Nc2cccc(Cl)c2)[C@@H](c2ccc(/C=C/C(=O)Nc3ccccc3N)cc2)C1 (racemic)      7 mL/min/kg
